# credit: patent US5670546A

# Test system: test animals
# assayOverview: toxicity test: behavioral changes in the test animals observed by the naked eye
# Format: in vivo, KTC-ICR mice
# appliedConditions: Amount 1 mgg; score, normal value 4
endpointName: Sedation
Answer field: number only, no words.

>  <molecule>
COc1cc(CC(=O)NCCCc2ccc(C)c(C)c2)ccc1OCCN [Control, reference compound]

>  <valueReported>
7

$$$$
>  <molecule>
COc1cc(CC(=O)NCCCc2ccc(C)c(C)c2)ccc1OCCN1CCNCC1

>  <valueReported>
4

$$$$
>  <molecule>
COc1cc(CC(=O)NCCCc2ccc(C)c(C)c2)ccc1OCCO

>  <valueReported>
4

$$$$

Then there is this molecule:
Q: Return reported Sedation; argument: COc1cc(CC(=O)NCCCc2ccc(C)c(C)c2)ccc1OCCNCCO
Result: 6

###

# Tested on: test animals
# assayOverview: toxicity test: behavioral changes in the test animals observed by the naked eye
# Assay type: in vivo, KTC-ICR mice
# appliedConditions: Amount 1 mgg; score, normal value 4
endpointName: Vasodilation
Answer field: number only, no words.

In the examples that follow, each entry is paired with its recorded Vasodilation.
>  <molecule>
COc1cc(CC(=O)NCCCc2ccc(C)c(C)c2)ccc1OCCN1CCNCC1 [Example 5]

>  <Vasodilation>
4

$$$$
>  <molecule>
COc1cc(CC(=O)NCCCc2ccc(C)c(C)c2)ccc1OCCN [Control, reference compound]

>  <Vasodilation>
6

$$$$
>  <molecule>
COc1cc(CC(=O)NCCCc2ccc(C)c(C)c2)ccc1OCCO [Example 1]

>  <Vasodilation>
4

$$$$

Q: Return reported Vasodilation; argument: COc1cc(CC(=O)NCCCc2ccc(C)c(C)c2)ccc1OCCNCCO [Example 2]
Result: 5

###

# Tested on: test animals
# assayOverview: toxicity test: behavioral changes in the test animals observed by the naked eye
# Type: in vivo, KTC-ICR mice
# appliedConditions: Amount 1 mgg; score, normal value 4
endpointName: Dyspnoea
Answer field: number only, no words.

>  <compound>
COc1cc(CC(=O)NCCCc2ccc(C)c(C)c2)ccc1OCCO [Example 1]

>  <targetUnderTest>
test animals

>  <endpointName>
Dyspnoea

>  <valueReported>
4

$$$$
>  <compound>
COc1cc(CC(=O)NCCCc2ccc(C)c(C)c2)ccc1OCCNCCO [Example 2]

>  <targetUnderTest>
test animals

>  <endpointName>
Dyspnoea

>  <valueReported>
5

$$$$
>  <compound>
COc1cc(CC(=O)NCCCc2ccc(C)c(C)c2)ccc1OCCN [Control, reference compound]

>  <targetUnderTest>
test animals

>  <endpointName>
Dyspnoea

>  <valueReported>
6

$$$$

Then there is this compound:
Q: Return reported Dyspnoea; argument: COc1cc(CC(=O)NCCCc2ccc(C)c(C)c2)ccc1OCCN1CCNCC1 [Example 5]
Result: 4
